Target: estrogen receptor (Homo sapiens)
Construct: MCF7 cells, which are estrogen receptor positive; endogenous in cells; host or cells: MCF7
Sequence (P03372 1-595): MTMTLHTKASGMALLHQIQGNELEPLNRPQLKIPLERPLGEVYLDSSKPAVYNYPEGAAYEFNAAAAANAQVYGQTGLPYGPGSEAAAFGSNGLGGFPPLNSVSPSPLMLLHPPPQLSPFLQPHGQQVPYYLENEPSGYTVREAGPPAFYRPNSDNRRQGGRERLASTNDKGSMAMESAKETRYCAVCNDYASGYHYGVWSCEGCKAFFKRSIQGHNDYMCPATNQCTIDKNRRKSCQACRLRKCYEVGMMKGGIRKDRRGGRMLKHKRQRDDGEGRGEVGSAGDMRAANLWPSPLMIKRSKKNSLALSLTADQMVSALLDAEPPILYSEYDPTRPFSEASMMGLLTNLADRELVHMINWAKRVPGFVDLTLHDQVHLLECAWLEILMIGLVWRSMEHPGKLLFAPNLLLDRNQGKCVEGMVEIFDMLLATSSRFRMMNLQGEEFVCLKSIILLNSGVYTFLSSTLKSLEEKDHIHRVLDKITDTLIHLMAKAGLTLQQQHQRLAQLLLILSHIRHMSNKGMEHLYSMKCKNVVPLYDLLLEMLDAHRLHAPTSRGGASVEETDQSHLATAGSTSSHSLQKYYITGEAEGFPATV
Test: Estrogen Receptor (ER) Degradation Assay (In-Cell Western, MCF7 cells)
Assay type: cell-based
Design: key: **** denotes 0-0% Estrogen Receptor remaining; *** denotes 417% Estrogen Receptor remaining; ** denotes 719% Estrogen Receptor remaining; * denotes 9110% Estrogen Receptor remaining
Details: vehicle set to 100% ER
measuredProperty: % Estrogen Receptor Remaining

# smilesData, testSystem, reportedResult
measured = [
    ("Cc1cc(F)cc(C)c1C(=O)c1sc2cc(O)ccc2c1-c1ccc(O[C@H]2CCN(CCCF)C2)cc1", "estrogen receptor (Homo sapiens)", "**"),
    ("Cc1cc(F)cc(C)c1C(=O)c1sc2cc(O)ccc2c1-c1ccc(O[C@@H]2CCN(CCCF)C2)cc1", "estrogen receptor (Homo sapiens)", "***"),
]

----------
Target: estrogen receptor (Homo sapiens)
Construct: MCF7 cells, which are estrogen receptor positive; endogenous in cells; host or cells: MCF7
Sequence (P03372 1-595): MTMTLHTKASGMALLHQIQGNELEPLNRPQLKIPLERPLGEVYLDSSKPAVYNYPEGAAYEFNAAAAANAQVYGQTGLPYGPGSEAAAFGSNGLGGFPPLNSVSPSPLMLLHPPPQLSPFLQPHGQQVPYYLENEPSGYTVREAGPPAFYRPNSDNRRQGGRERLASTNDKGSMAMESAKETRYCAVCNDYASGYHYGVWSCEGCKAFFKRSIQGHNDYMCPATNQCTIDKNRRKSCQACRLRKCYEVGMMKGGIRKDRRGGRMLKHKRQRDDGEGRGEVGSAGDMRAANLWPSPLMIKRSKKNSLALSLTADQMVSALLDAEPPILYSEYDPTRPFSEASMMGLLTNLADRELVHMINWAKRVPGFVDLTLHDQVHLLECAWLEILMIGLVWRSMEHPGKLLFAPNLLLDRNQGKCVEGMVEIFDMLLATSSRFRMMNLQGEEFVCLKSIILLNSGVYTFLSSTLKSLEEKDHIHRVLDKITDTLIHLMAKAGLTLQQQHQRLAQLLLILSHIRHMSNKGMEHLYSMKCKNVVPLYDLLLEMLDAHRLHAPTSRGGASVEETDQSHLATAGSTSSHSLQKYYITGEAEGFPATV
Experiment: Estrogen Receptor (ER) Degradation Assay (In-Cell Western, MCF7 cells)
Type: cell-based
Design: key: **** denotes 0-0% Estrogen Receptor remaining; *** denotes 417% Estrogen Receptor remaining; ** denotes 719% Estrogen Receptor remaining; * denotes 9110% Estrogen Receptor remaining
Conditions: vehicle set to 100% ER
Experimental: A screening strategy was implemented utilizing an In-Cell Western assay to measure their ability to degrade the estrogen receptor in vitro. MCF7 cells, which are estrogen receptor positive, were plated at a cell density of […] into black walled clear bottom 96-well plates. […] ER protein expression was assessed by the Licor Odyssey CLx imaging system using Image Studio v5.2. […]

# compound, % Estrogen Receptor Remaining
measured = [
    ("Cc1cc(F)cc(C)c1C(=O)c1sc2cc(O)ccc2c1Oc1ccc(OCCN2CCC(CCCF)C2)cc1 (stereo not shown)", "**"),
    ("Cc1cc(F)cc(C)c1C(=O)c1sc2cc(O)ccc2c1-c1ccc(OCCN2CCCC2)cc1", "***"),
    ("Cc1cc(F)cc(C)c1C(=O)c1sc2cc(O)ccc2c1Oc1ccc(O[C@H]2CCNC2)cc1", "***"),
    ("CCNCCc1ccc(Oc2c(C(=O)c3c(C)cc(F)cc3C)sc3cc(C(=O)O)ccc23)cc1", "***"),
]
